# Target Of Assay: BRAF (V600D) (Homo sapiens, UniProt P15056, V600D)
# Method: Radiolabeled kinase assay (Reaction Biology)

{"Compound": "CCCS(=O)(=O)Nc1ccc(F)c(C(=O)c2c[nH]c3ncc(-c4ccc(N5CCN(CC(=O)NC(C(=O)N6CC(O)CC6C(=O)NCc6ccc(-c7scnc7C)cc6)C(C)(C)C)CC5)cc4)cc23)c1F (stereo not shown) [SJF-0628]", "IC50": "2.68 nM"}

* * *

# Target Of Assay: BRAF V600E (Homo sapiens, UniProt P15056, V600E)
# Sequence (P15056 whole entry V600E): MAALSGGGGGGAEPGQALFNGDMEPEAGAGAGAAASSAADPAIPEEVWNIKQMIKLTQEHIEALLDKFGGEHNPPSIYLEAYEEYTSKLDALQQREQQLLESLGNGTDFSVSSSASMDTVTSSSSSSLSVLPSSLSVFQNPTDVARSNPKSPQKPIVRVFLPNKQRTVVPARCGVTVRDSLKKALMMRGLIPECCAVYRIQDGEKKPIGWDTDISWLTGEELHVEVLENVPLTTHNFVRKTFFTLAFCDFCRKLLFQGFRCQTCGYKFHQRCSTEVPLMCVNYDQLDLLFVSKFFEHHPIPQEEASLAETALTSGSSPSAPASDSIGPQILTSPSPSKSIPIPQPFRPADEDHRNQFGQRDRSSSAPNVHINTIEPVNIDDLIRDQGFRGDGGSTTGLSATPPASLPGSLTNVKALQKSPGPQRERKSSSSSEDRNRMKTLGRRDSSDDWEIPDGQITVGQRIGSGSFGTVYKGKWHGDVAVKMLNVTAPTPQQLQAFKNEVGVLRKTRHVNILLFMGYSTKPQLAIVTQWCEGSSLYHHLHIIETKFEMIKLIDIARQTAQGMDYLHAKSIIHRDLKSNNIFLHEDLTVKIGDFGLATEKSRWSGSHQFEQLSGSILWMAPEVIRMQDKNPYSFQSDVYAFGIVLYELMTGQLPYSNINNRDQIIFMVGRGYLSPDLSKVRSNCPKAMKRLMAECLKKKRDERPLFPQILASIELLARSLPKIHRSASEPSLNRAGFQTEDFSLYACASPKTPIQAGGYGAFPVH
# Method: Radiolabeled kinase assay (Reaction Biology)
# Assay type: biochemical
# Set-up: purchased Reaction Biology Corps
Measure: IC50 (nM)

{"Compound": "CCCS(=O)(=O)Nc1ccc(F)c(C(=O)c2c[nH]c3ncc(-c4ccc(N5CCN(CC(=O)NC(C(=O)N6CC(O)CC6C(=O)NCc6ccc(-c7scnc7C)cc6)C(C)(C)C)CC5)cc4)cc23)c1F (stereo not shown)", "Measure": "IC50", "Reported Value": 1.87}

* * *

# Target Of Assay: BRAF (G464V) (Homo sapiens, UniProt P15056, G464V)
# Sequence (P15056 whole entry G464V): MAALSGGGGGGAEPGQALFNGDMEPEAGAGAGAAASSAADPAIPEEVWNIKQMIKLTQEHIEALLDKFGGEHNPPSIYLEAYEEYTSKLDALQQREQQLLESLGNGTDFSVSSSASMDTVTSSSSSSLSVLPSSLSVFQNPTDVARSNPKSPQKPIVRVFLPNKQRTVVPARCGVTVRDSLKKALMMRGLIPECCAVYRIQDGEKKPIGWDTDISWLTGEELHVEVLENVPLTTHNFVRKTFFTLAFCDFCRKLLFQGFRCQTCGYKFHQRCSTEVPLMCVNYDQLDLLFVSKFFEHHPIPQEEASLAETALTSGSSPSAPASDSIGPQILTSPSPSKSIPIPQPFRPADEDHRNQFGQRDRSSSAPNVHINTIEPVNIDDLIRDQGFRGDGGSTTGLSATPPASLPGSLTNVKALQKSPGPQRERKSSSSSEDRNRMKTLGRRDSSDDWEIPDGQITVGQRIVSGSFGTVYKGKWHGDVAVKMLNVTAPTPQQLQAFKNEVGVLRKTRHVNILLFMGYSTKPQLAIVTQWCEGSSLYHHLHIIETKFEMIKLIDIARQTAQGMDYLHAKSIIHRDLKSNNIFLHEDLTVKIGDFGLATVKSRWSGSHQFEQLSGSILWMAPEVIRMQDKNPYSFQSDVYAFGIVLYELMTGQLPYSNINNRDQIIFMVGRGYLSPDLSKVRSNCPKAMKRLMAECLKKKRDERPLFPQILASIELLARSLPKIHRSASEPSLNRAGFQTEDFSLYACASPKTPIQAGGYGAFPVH
# Method: Radiolabeled kinase assay (Reaction Biology)
# Method: Kinase assays were performed by Reaction Biology Corps by their protocol in duplicate using Km amounts of ATP calculated for each kinase.
pIC50: −log10 of the molar value.

{"Compound": "CCCS(=O)(=O)Nc1ccc(F)c(C(=O)c2c[nH]c3ncc(-c4ccc(N5CCN(CC(=O)NC(C(=O)N6CC(O)CC6C(=O)NCc6ccc(-c7scnc7C)cc6)C(C)(C)C)CC5)cc4)cc23)c1F (stereo not shown) [SJF-0628]", "pIC50": 8.04}

* * *

# Target Of Assay: BRAF (V600K) (Homo sapiens, UniProt P15056, V600K)
# Sequence (P15056 whole entry V600K): as the sequence (P15056 whole entry V600E) above, with E600K counted along it
# Method: Radiolabeled kinase assay (Reaction Biology)
pIC50: −log10 of the molar value.
Measure: pIC50

{"Compound": "CCCS(=O)(=O)Nc1ccc(F)c(C(=O)c2c[nH]c3ncc(-c4ccc(N5CCN(CC(=O)NC(C(=O)N6CC(O)CC6C(=O)NCc6ccc(-c7scnc7C)cc6)C(C)(C)C)CC5)cc4)cc23)c1F (stereo not shown) [SJF-0628]", "Measure": "pIC50", "Reported Value": 9.31}

* * *

# Target Of Assay: BRAF (L597V) (Homo sapiens, UniProt P15056, L597V)
# Sequence (P15056 whole entry L597V): as the sequence (P15056 whole entry G464V) above, with V464G, L597V counted along it
# Method: Radiolabeled kinase assay (Reaction Biology)
pIC50: −log10 of the molar value.

{"Compound": "CCCS(=O)(=O)Nc1ccc(F)c(C(=O)c2c[nH]c3ncc(-c4ccc(N5CCN(CC(=O)NC(C(=O)N6CC(O)CC6C(=O)NCc6ccc(-c7scnc7C)cc6)C(C)(C)C)CC5)cc4)cc23)c1F (stereo not shown)", "pIC50": 7.80}

* * *

# Target Of Assay: BRAF (V600A) (Homo sapiens, UniProt P15056, V600A)
# Method: Radiolabeled kinase assay (Reaction Biology)

{"Compound": "CCCS(=O)(=O)Nc1ccc(F)c(C(=O)c2c[nH]c3ncc(-c4ccc(N5CCN(CC(=O)NC(C(=O)N6CC(O)CC6C(=O)NCc6ccc(-c7scnc7C)cc6)C(C)(C)C)CC5)cc4)cc23)c1F (stereo not shown) [SJF-0628]", "IC50 / nM": 1.06}

* * *

# Target Of Assay: BRAF WT (Homo sapiens)
# Construct: purchased Carna Biosciences
# Sequence (P15056 whole entry): as the sequence (P15056 whole entry V600E) above, with E600V counted along it
# Method: Elisa kinase inhibition assay (Carna Biosciences)
# Assay type: biochemical
# Particulars: Km ATP, duplicate

{"Molecule": "CCCS(=O)(=O)Nc1ccc(F)c(C(=O)c2c[nH]c3ncc(-c4ccc(N5CCN(CC(=O)NC(C(=O)N6CC(O)CC6C(=O)NCc6ccc(-c7scnc7C)cc6)C(C)(C)C)CC5)cc4)cc23)c1F (stereo not shown)", "IC50 (nM)": 39.2}

* * *

# IC50 annotations
# Target Of Assay: BRAF V600E (Homo sapiens, UniProt P15056, V600E)
# Method: Elisa kinase inhibition assay (Carna Biosciences)
# Format: biochemical
# Parameters: purchased Carna Biosciences
# Particulars: Km ATP, duplicate

{"Compound": "CCCS(=O)(=O)Nc1ccc(F)c(C(=O)c2c[nH]c3ncc(-c4ccc(N5CCN(CC(=O)NC(C(=O)N6CC(O)CC6C(=O)NCc6ccc(-c7scnc7C)cc6)C(C)(C)C)CC5)cc4)cc23)c1F (centres unmarked)", "Target Of Assay": "BRAF V600E (Homo sapiens, UniProt P15056, V600E)", "IC50, nM": 24.4}
{"Compound": "CCCS(=O)(=O)Nc1ccc(F)c(C(=O)c2c[nH]c3ncc(-c4ccc(N5CCN(CC(=O)N[C@H](C(=O)N6C[C@@H](O)C[C@H]6C(=O)NCc6ccc(-c7scnc7C)cc6)C(C)(C)C)CC5)cc4)cc23)c1F", "Target Of Assay": "BRAF V600E (Homo sapiens, UniProt P15056, V600E)", "IC50, nM": 30}

* * *

# Target Of Assay: BRAF (K601E) (Homo sapiens, UniProt P15056, K601E)
# Construct: purchased Reaction Biology Corps
# Sequence (P15056 whole entry K601E): as the sequence (P15056 whole entry G464V) above, with V464G, K601E counted along it
# Method: Radiolabeled kinase assay (Reaction Biology)
# Format: biochemical
# Method: Kinase assays were performed by Reaction Biology Corps by their protocol in duplicate using Km amounts of ATP calculated for each kinase.
pIC50: −log10 of the molar value.

{"Compound": "CCCS(=O)(=O)Nc1ccc(F)c(C(=O)c2c[nH]c3ncc(-c4ccc(N5CCN(CC(=O)NC(C(=O)N6CC(O)CC6C(=O)NCc6ccc(-c7scnc7C)cc6)C(C)(C)C)CC5)cc4)cc23)c1F (stereo not shown) [SJF-0628]", "pIC50": 8.11}

* * *

# Target Of Assay: BRAF (BRAF^WT) (Homo sapiens, UniProt P15056)
# Sequence (P15056 whole entry): as the sequence (P15056 whole entry V600E) above, with E600V counted along it
Measure: IC50

{"Compound": "CCCS(=O)(=O)Nc1ccc(F)c(C(=O)c2c[nH]c3ncc(-c4ccc(N5CCN(CC(=O)NC(C(=O)N6CC(O)CC6C(=O)NCc6ccc(-c7scnc7C)cc6)C(C)(C)C)CC5)cc4)cc23)c1F (stereo not shown)", "Target Of Assay": "BRAF (BRAF^WT) (Homo sapiens, UniProt P15056)", "Measure": "IC50", "Reported Value": "5.8 nM"}
